assay: chemical genetic growth profiling, strain panel (AID 1159580);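 further: tested at 20 µM; growth read once vehicle control cultures reached saturation at 30 °C; lower values mean less growth of the strain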; conditions: S. cerevisiae deletion strains, growth OD, locus YDL101C, strain DUN1
Screen size: about 5,500 compounds; about 2,000 (36%) were called active. Not shown: some 18% with an inconclusive outcome. No stated cut-off is given here; in the data, active means normalized growth mostly below about 0.91 (no sharp cut-off); inconclusive means no clear call, values can overlap the other calls; inactive means mostly above about 0.92. The list shows a part of the results.
Answer with one of the outcomes given here: True for active, False for inactive

Sample answers from the record:
Test call, this compound: COC(=O)c1ccc(C(=O)OC)nc1
False

Test call, this compound: COc1cc(N=Cc2cc(Cl)cc(Cl)c2OC(=O)c2cc(OC)c(OC)c(OC)c2)c(OC)cc1Cl
False

Test call, this compound: COc1ccccc1NC(=O)N1CCCN(C(=O)c2cccs2)CC1
False

Test call, this compound: c1ccc2[nH]c(-c3cscn3)nc2c1
False

Test call, this compound: CC(C)c1nc2ccccc2[nH]1
False

Test call, this compound: CC[C@@H]1[C@@H](O)N2C3C[C@H]1C1C(O)[C@]4(C[C@@H]12)c1ccccc1N(C)[C@@H]34 (some centres undefined)
False

Consider the record given below.
Test call, this compound: COc1cc(C)c2c(c1C=O)Oc1c(c(C)c(O)c3c1C(O)OC3=O)OC2=O (centres undefined)
False

The measurements presented in this section are drawn from PubChem BioAssay AID1159580.
